This collection of values is drawn from PubChem BioAssay (NCATS).

testDescription: qHTS assay for measurement of the activity of small molecule inhibitors on Zika virus induced Caspase-3 activity in human astrocytoma cells (AID 1224859)
conditionSummary: SNB-19 ZIKV-induced caspase-3/7, luminescence, 6 h; series mostly up to 45.7 µM
The source made the active and inactive calls. The call rests on the fitted dose curve; in most records, active means well fitted inhibition curve with a large enough effect; inconclusive means small, poorly fitted or top-dose-only effect; inactive means no such curve, though single readings can be large or run the other way.
observedProperty: outcome

Field: example entries. Status: answers known.
[
  {
    "molecule": "CCN(CC)c1ncnc2c1ncn2[C@@H]1O[C@H](COP(=O)(O)OP(=O)(O)C(Br)(Br)P(=O)(O)O)[C@@H](O)[C@H]1O",
    "obsValue": "inactive"
  },
  {
    "molecule": "O=C(OCc1ccccc1)c1ccccc1",
    "obsValue": "inactive"
  },
  {
    "molecule": "Cc1c(C(=O)O)c(O)cc2c1C(=O)c1c(O)c([C@@H]3O[C@H](CO)[C@@H](O)[C@H](O)[C@H]3O)c(O)c(O)c1C2=O",
    "obsValue": "inactive"
  },
  {
    "molecule": "CC1(C)CCC=[N+]1[O-]",
    "obsValue": "inactive"
  },
  {
    "molecule": "CC12C(=O)OC(=O)C1(C)C1CCC2O1 (stereo not given)",
    "obsValue": "inactive"
  }
]

The recorded outcome for O=c1[nH]c2cc([N+](=O)[O-])c([N+](=O)[O-])cc2[nH]c1=O is inactive

So, Cc1ccc(C(=O)O[C@H](C(=O)O)[C@@H](OC(=O)c2ccc(C)cc2)C(=O)O)cc1 (tested in a mixture with another compound) ? Its outcome was inactive

Value of outcome reported for the molecule C=CC(=O)c1ccc(CCCCCC)cc1 is inactive

Entry Clc1ccc(N2CCN(Cc3c[nH]c4ncccc34)CC2)cc1 — recorded outcome = inactive

get_value(item= O=C(Nc1ccccc1)c1cc([N+](=O)[O-])ccc1Cl , readout=outcome) returns inactive

Lab note: CO/N=C(\C(=O)N[C@@H]1C(=O)N2C(C(=O)O)=C(COC(C)=O)CS[C@H]12)c1csc(N)n1 gave outcome of inactive

For reference, reported outcome for CN1CCC[C@H]1c1cccnc1 stands at inactive

Given item COC(=O)c1c(C)[nH]c(C)c1C(=O)c1ccccc1Cc1ccccc1 , the value recorded as its outcome is inactive

outcome reported for this molecule C#C[C@]1(O)CC[C@H]2[C@@H]3CCc4cc(O)ccc4[C@H]3CC[C@@]21C : inactive

Short answer for NCCCS(=O)(=O)O : outcome was inactive

// field: outcome; key: CN(C)c1nc(N)c(C(=O)N=C(N)N)nc1Cl ; value = inactive

For reference, reported outcome for O=C1O/C(=C/Br)CCC1c1cccc2ccccc12 (stereo not given) stands at inactive

response.value for CCCC1(C)C(C#N)(C#N)C1(C#N)C#N (field: outcome) = inactive

The reported value for CC[C@@H](C)[C@H]1O[C@]2(CC[C@H]1C)C[C@@H]1C[C@@H](CC=C(C)[C@@H](O[C@H]3C[C@H](OC)[C@@H](O[C@H]4C[C@H](OC)[C@@H](O)[C@H](C)O4)[C@H](C)O3)[C@@H](C)C=CC=C3CO[C@@H]4[C@H](O)C(C)=C[C@@H](C(=O)O1)[C@]34O)O2 in terms of outcome is inactive

The molecule identified as CCCSc1ccc2nc(NC(=O)OC)[nH]c2c1 registered its outcome at inactive
